Test: Unbound fraction in the in vitro medium by rapid equilibrium dialysis (RED)
Type: in vitro ADME
Conditions: in vitro medium with 0.1 mg/ml BSA; read-out: unbound fraction in the in vitro medium (fu in vitro)
OBSERVED_PROPERTY: fraction unbound at 5 h, 0.05 µM

> print(dat)
                                   compound  numeric.value
1  CCOP(=O)(OCC)Oc1cc(C)nc(C(C)C)n1 [DZO, Diazoxon]           0.96

###

Target: PON1 (Homo sapiens)
Construct: 1 µl of human or rat liver microsomes (final concentration 0.1 mg microsomal protein/ml); tissue Corning; host or cells: human liver microsomes, pooled from 20 donors
Sequence (P27169 whole entry): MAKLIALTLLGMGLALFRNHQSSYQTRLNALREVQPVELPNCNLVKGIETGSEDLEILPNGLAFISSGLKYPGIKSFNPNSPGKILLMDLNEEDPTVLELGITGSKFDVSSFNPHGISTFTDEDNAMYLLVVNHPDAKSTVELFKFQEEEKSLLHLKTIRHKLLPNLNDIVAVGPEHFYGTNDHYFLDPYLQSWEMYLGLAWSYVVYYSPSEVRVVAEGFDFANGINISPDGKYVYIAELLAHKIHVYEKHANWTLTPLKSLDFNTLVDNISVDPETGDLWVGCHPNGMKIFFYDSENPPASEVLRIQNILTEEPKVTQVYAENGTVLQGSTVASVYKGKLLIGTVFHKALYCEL
Test: in vitro
Format: in vitro ADME
Settings: pH 7.4; human plasma
OBSERVED_PROPERTY: Km (µM)

> print(dat)
                        test.smiles  output.unit  numeric.value
1  CCOP(=O)(OCC)Oc1cc(C)nc(C(C)C)n1           µM            701
